# Tested on: ATP;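 further: ATP exposure 15 min at 22 °C before imaging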
# PROTOCOL_DETAILS: switch fluorescence ratio, 500 uM ATP over buffer (Cy3 cluster intensity, sum of 5 cycles each) (fold (ratio)); higher = stronger signal-on switching upon ATP binding; sequences stand for … in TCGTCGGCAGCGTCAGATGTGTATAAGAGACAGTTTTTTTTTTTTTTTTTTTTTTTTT…TC
# CONDITION: aptamer strand: ATP DNA aptamer (quencher-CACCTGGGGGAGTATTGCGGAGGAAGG + anchor), 100 nM annealed; ATP concentration: 500 uM
QUANTITY_NAME: switch fluorescence ratio
Answers are plain numbers.

Worked cases, answers included:
SEQUENCE_CHAIN: TGCGCTTGTG
switch fluorescence ratio: 0.97
--
SEQUENCE_CHAIN: ATTATGTTGT
switch fluorescence ratio: 0.981
--
SEQUENCE_CHAIN: CGGCTTGTG
switch fluorescence ratio: 0.997

# per-item lookup of switch fluorescence ratio; items listed below
1. TGAAAAAGAT
2. CCTGATAGCG

Output:
[0.989, 1.05]

# per-item lookup of switch fluorescence ratio; items listed below
1. GGGGGGGTC
2. AACACGGCTG
3. TCGGTAGCGA
4. GCTATTTAGG
5. TCAGGGTCCG

Output:
[0.979, 1.05, 1.14, 1, 0.961]

====

# Test system: ATP;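 further: ATP exposure 15 min at 22 °C before imaging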
# PROTOCOL_DETAILS: switch fluorescence ratio, 500 uM ATP over buffer (Cy3 cluster intensity, sum of 5 cycles each) (fold (ratio)); higher = stronger signal-on switching upon ATP binding; sequences stand for … in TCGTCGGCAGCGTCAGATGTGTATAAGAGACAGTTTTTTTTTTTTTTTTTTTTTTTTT…TC
# CONDITION: aptamer strand: ATP DNA aptamer (quencher-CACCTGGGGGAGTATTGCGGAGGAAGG + anchor), 100 nM annealed; ATP concentration: 500 uM
Answer each item with its documented switch fluorescence ratio.
Answers are plain numbers.

SEQUENCE_CHAIN: TATAGGTGTT
switch fluorescence ratio: 1.05

# per-item lookup of switch fluorescence ratio; items listed below
1. TTAGGGGTCG
2. GTTGGGGCCG

Output:
1
0.991

# per-item lookup of switch fluorescence ratio; items listed below
1. GGGGCGTGTG
2. TTTCTTGGGA
3. GATATAGGGG
4. TTTGTTAGAA
5. TGCGCTGTA
6. TGTGGTCTGT
7. ACGTTGGTGG

Output:
1. 1.01
2. 1
3. 1
4. 1.02
5. 1.02
6. 0.981
7. 1

====

# System: ATP;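 further: ATP exposure 15 min at 22 °C before imaging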
# PROTOCOL_DETAILS: switch fluorescence ratio, 500 uM ATP over buffer (Cy3 cluster intensity, sum of 5 cycles each) (fold (ratio)); higher = stronger signal-on switching upon ATP binding; sequences stand for … in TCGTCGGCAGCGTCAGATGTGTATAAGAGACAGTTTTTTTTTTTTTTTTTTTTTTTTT…TC
# CONDITION: aptamer strand: ATP DNA aptamer (quencher-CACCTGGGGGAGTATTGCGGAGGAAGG + anchor), 100 nM annealed; ATP concentration: 500 uM
QUANTITY_NAME: switch fluorescence ratio
Answers are plain numbers.

Worked cases, answers included:
SEQUENCE_CHAIN: TGGGAGAGT
switch fluorescence ratio: 1.01

SEQUENCE_CHAIN: GCTTATATTT
switch fluorescence ratio: 1.04

SEQUENCE_CHAIN: GTCTTAACGA
switch fluorescence ratio: 0.981

SEQUENCE_CHAIN: AGTGTTGCAG
switch fluorescence ratio: 0.98

# per-item lookup of switch fluorescence ratio; items listed below
1. ACAGTATGGA
2. ATGCATTACT
3. TAAAAGTTGG
4. ATGGCACTGG
5. GGTTAGGGGT
6. AAATTACATT

Output:
1: 1; 2: 1.61; 3: 0.985; 4: 1.07; 5: 1.08; 6: 1.02

====

# System: ATP;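 further: ATP exposure 15 min at 22 °C before imaging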
# PROTOCOL_DETAILS: switch fluorescence ratio, 500 uM ATP over buffer (Cy3 cluster intensity, sum of 5 cycles each) (fold (ratio)); higher = stronger signal-on switching upon ATP binding; sequences stand for … in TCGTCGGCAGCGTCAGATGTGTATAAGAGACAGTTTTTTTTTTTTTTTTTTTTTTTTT…TC
# CONDITION: aptamer strand: ATP DNA aptamer (quencher-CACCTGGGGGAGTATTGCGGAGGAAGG + anchor), 100 nM annealed; ATP concentration: 500 uM
Answer each item with its documented switch fluorescence ratio.
Answers are plain numbers.

SEQUENCE_CHAIN: ACTATTGGTG
RECORDED_NUMBER: 1.12

# per-item lookup of switch fluorescence ratio; items listed below
1. AAGCATCTTT
2. TCTTTAATAA
3. CGGGGGAGCT

Output:
0.974
1
1.02

====

# System: ATP;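 further: ATP exposure 15 min at 22 °C before imaging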
# PROTOCOL_DETAILS: switch fluorescence ratio, 500 uM ATP over buffer (Cy3 cluster intensity, sum of 5 cycles each) (fold (ratio)); higher = stronger signal-on switching upon ATP binding; sequences stand for … in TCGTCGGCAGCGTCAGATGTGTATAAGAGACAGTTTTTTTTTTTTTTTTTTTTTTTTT…TC
# CONDITION: aptamer strand: ATP DNA aptamer (quencher-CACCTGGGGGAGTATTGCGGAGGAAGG + anchor), 100 nM annealed; ATP concentration: 500 uM
Answer each item with its documented switch fluorescence ratio.
Give bare numbers.

Worked cases, answers included:
SEQUENCE_CHAIN: AGGGGGTAAA
switch fluorescence ratio: 0.975
--
SEQUENCE_CHAIN: CTGGGAAGAG
switch fluorescence ratio: 1.01
--
SEQUENCE_CHAIN: GAGACAATTC
switch fluorescence ratio: 1.06

# per-item lookup of switch fluorescence ratio; items listed below
1. TAGTTTTTCT
2. CTTTAACGAG

Output:
1: 0.971; 2: 0.998

# per-item lookup of switch fluorescence ratio; items listed below
1. ACGGCGAGTC
2. GAGGTGGGGC
3. CGTTGTTACA
4. TACTTTAGCT
5. TATGCGATTG
6. ATAGGTGCGG
7. TCCCGGTCCG
8. TTTACCGGGA

Output:
1: 1.01; 2: 1.05; 3: 1.04; 4: 1.11; 5: 1.04; 6: 0.985; 7: 1; 8: 1.13

====

# Test system: ATP;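 further: ATP exposure 15 min at 22 °C before imaging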
# PROTOCOL_DETAILS: switch fluorescence ratio, 500 uM ATP over buffer (Cy3 cluster intensity, sum of 5 cycles each) (fold (ratio)); higher = stronger signal-on switching upon ATP binding; sequences stand for … in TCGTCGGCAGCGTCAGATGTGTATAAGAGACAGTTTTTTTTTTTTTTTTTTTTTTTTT…TC
# CONDITION: aptamer strand: ATP DNA aptamer (quencher-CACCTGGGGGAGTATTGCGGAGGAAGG + anchor), 100 nM annealed; ATP concentration: 500 uM
QUANTITY_NAME: switch fluorescence ratio
Numbers only.

# per-item lookup of switch fluorescence ratio; items listed below
1. TATTCTCATG
2. TTTTTCGCTG
3. ATGGGGATCG
4. GTGCTCTTAC
5. GGAAAGATTG
6. TTTTTTCGAT

Output:
1. 1
2. 1.03
3. 0.993
4. 1.11
5. 0.991
6. 0.995

====

# Test system: ATP;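 further: ATP exposure 15 min at 22 °C before imaging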
# PROTOCOL_DETAILS: switch fluorescence ratio, 500 uM ATP over buffer (Cy3 cluster intensity, sum of 5 cycles each) (fold (ratio)); higher = stronger signal-on switching upon ATP binding; sequences stand for … in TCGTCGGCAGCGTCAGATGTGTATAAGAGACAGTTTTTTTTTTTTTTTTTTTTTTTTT…TC
# CONDITION: aptamer strand: ATP DNA aptamer (quencher-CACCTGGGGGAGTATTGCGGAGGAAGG + anchor), 100 nM annealed; ATP concentration: 500 uM
QUANTITY_NAME: switch fluorescence ratio
Give bare numbers.

Worked cases, answers included:
SEQUENCE_CHAIN: TAGATATGTA
switch fluorescence ratio: 1.02
//
SEQUENCE_CHAIN: CTTGGAGTTA
switch fluorescence ratio: 0.997

Consider the additional sequence presented here.
Per the records, this sequence ( GAGTTTATAT ) has switch fluorescence ratio equal to 1.01

====

Answer each item with its documented switch fluorescence ratio.
# Tested on: ATP;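 further: ATP exposure 15 min at 22 °C before imaging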
# PROTOCOL_DETAILS: switch fluorescence ratio, 500 uM ATP over buffer (Cy3 cluster intensity, sum of 5 cycles each) (fold (ratio)); higher = stronger signal-on switching upon ATP binding; sequences stand for … in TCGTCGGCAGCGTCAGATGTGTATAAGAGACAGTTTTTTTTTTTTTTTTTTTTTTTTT…TC
# CONDITION: aptamer strand: ATP DNA aptamer (quencher-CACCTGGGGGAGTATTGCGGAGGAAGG + anchor), 100 nM annealed; ATP concentration: 500 uM
One number for each entry.

Worked cases, answers included:
SEQUENCE_CHAIN: GGGAAGGGGC
TARGET_OF_ASSAY: ATP;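 further: ATP exposure 15 min at 22 °C before imaging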
switch fluorescence ratio: 1.02
//
SEQUENCE_CHAIN: AGCACGGGTA
TARGET_OF_ASSAY: ATP;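 further: ATP exposure 15 min at 22 °C before imaging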
switch fluorescence ratio: 1.01
//
SEQUENCE_CHAIN: GGGGAGAAAC
TARGET_OF_ASSAY: ATP;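 further: ATP exposure 15 min at 22 °C before imaging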
switch fluorescence ratio: 1.08
//
SEQUENCE_CHAIN: CTTGGTGGTG
TARGET_OF_ASSAY: ATP;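 further: ATP exposure 15 min at 22 °C before imaging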
switch fluorescence ratio: 0.995
//
SEQUENCE_CHAIN: ATTTTATGTG
TARGET_OF_ASSAY: ATP;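 further: ATP exposure 15 min at 22 °C before imaging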
switch fluorescence ratio: 0.991
//
SEQUENCE_CHAIN: GAGGCATATA
TARGET_OF_ASSAY: ATP;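 further: ATP exposure 15 min at 22 °C before imaging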
switch fluorescence ratio: 1.9
//
SEQUENCE_CHAIN: TTTAGACGTG
TARGET_OF_ASSAY: ATP;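 further: ATP exposure 15 min at 22 °C before imaging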
switch fluorescence ratio: 0.976
//
SEQUENCE_CHAIN: AGGGAATAGA
TARGET_OF_ASSAY: ATP;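 further: ATP exposure 15 min at 22 °C before imaging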
switch fluorescence ratio: 0.989
//
SEQUENCE_CHAIN: TTTTCAGTGG
TARGET_OF_ASSAY: ATP;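 further: ATP exposure 15 min at 22 °C before imaging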
switch fluorescence ratio: 1.02
//
SEQUENCE_CHAIN: CAGGTATAGG
TARGET_OF_ASSAY: ATP;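 further: ATP exposure 15 min at 22 °C before imaging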
switch fluorescence ratio: 0.986

# per-item lookup of switch fluorescence ratio; items listed below
1. TTCGACGAGG
2. GCTTTTTAGT
3. ATTAGTAAAG
4. CCTCGGTTGG
5. CGTGGGGCGG
6. CTTTATATCT

Output:
1: 0.996; 2: 1.01; 3: 0.997; 4: 1.01; 5: 0.999; 6: 0.993

# per-item lookup of switch fluorescence ratio; items listed below
1. TTACTCCGGG
2. AAGGAAATAG
3. GGTAATTGTT
4. TTGTGACAGT
5. TCGCAGGGGG
6. CCGGTTACAG

Output:
1: 1.3; 2: 0.969; 3: 0.998; 4: 1.01; 5: 0.992; 6: 1.07

# per-item lookup of switch fluorescence ratio; items listed below
1. GCTAGGAAGT
2. CAATAGAGAG
3. TTTGAGGGTG
4. TTATTAAATA
5. TTTCGATTTT
6. GATTCAGCGC
7. GTTGGGGCTT

Output:
0.983
0.997
1.07
0.98
0.993
0.99
1.02
